# experimental_details: Antioxidant activity assessed as concentration required to 50 % ABTS radical scavenging activity absorbance at 734 nm
# Assay type: functional
Record form. Attribute: Activity. Fill in for each entry.
One number for each entry, in µM.

Cc1c(C)c2c(c(C)c1O)CCC(C)(C(=O)O)O2 (stereo not given)	19
COC(=O)/C(N)=C/c1ccccc1	9.6
CCCCCCCC/C=C/CCCCCCCC(=O)OC[C@H](COC(=O)/C(N)=C/c1ccccc1)OC(=O)CCCCCCC/C=C/CCCCCCCC	11

Now for another entry.
Task: Give its Activity value. Item: COC(=O)C(=O)Cc1ccccc1
Output: 8.8
